B1: LINE1-full (parent)
chain: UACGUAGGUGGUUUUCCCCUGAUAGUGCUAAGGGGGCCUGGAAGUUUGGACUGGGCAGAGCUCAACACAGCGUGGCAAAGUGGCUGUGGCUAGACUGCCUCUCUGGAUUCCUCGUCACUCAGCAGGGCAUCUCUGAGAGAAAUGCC

Variants of: B1
method: self-cleavage, relative activity (ratio to wild type); higher = more cleavage; in vitro, sequencing; the parent is a self-cleaving ribozyme
Decision: self-cleavage >= 1 yields Y, all other cases yield N.

# variant, class
measured = [
    ("G49U", "N"),
    ("U14C A69C", "N"),
    ("U12G U45A", "Y"),
    ("U47A C111A", "Y"),
    ("U52A A65G", "N"),
    ("A30G C56U", "N"),
    ("U81A A94U", "N"),
    ("A30G G125U", "Y"),
    ("A31G G36C", "Y"),
    ("G7U C123G", "Y"),
    ("U100C A141G", "Y"),
    ("C3U U119C", "Y"),
    ("A2G C28U", "N"),
    ("A24G A50G", "Y"),
    ("U62C C98A", "N"),
    ("U52G A140G", "Y"),
    ("U26C A59G", "N"),
    ("G25A A59G", "N"),
    ("U115C U119G", "Y"),
    ("U12G G89A", "N"),
    ("U47A U108C", "Y"),
    ("A77C G93A", "N"),
]
